Task for the reader: assign each of the following molecules its reported Minimal lethal dose.
system: Sprague-Dawley rats; test: animal or person; conditions: rats

Value lookup for Minimal lethal dose; key = CCOC(=O)c1c(Br)nnn1[C@H](C)c1ccccc1 [Compound B99]
>8 mg/kg

Value lookup for Minimal lethal dose; key = C[C@H](c1ccccc1)n1nncc1C(=O)OC1CC1
>14 mg/kg

Value lookup for Minimal lethal dose; key = C[C@H](c1ccccc1)n1nnc(Br)c1C(=O)OC(C)(C)C
>16 mg/kg

* * *

Task for the reader: assign each of the following compounds its reported Approximate therapeutic index.
system: Sprague-Dawley rats; assay: animal or person; details: rats

Value lookup for Approximate therapeutic index; key = C=CC#CC(C)(C)OC(=O)c1ccnn1[C@H](C)c1ccccc1
>4

Value lookup for Approximate therapeutic index; key = COC(=O)C1=C(OC(=O)c2c(C(F)(F)F)cnn2[C@H](C)c2ccccc2)CCCC1
>8

Value lookup for Approximate therapeutic index; key = CO[C@H]1C[C@@H](OC(=O)c2ccnn2[C@H](C)c2ccccc2)C1
>21

* * *

tested on: Sprague-Dawley rats; type: in vivo; conditions: tail vein
Task for the reader: assign each of the following compounds its reported Minimal lethal dose.

Value lookup for Minimal lethal dose; key = COC(OC)(OC)C(=O)c1ccnn1[C@H](C)c1ccccc1 [Compound D1]
>11.2 mg/kg

Value lookup for Minimal lethal dose; key = CCOC(OC)(OCC)C(=O)c1cncn1[C@H](C)c1ccccc1
>2.7 mg/kg

Value lookup for Minimal lethal dose; key = COC(OC)C(=O)c1cc(F)nn1[C@H](C)c1ccccc1
>8.4 mg/kg

Value lookup for Minimal lethal dose; key = COC(OC)(OCC(C)(C)C)C(=O)c1ccnn1[C@H](C)c1ccccc1
>12.4 mg/kg

Value lookup for Minimal lethal dose; key = COC(OC)(OC)C(=O)c1cnnn1[C@H](C)c1ccccc1
>1.8 mg/kg

Value lookup for Minimal lethal dose; key = CCSC(OC)(OC)C(=O)c1ccnn1[C@H](C)c1ccccc1 [Compound D2]
>10.5 mg/kg

Value lookup for Minimal lethal dose; key = C#CCOCC(OC)(OC)C(=O)c1cncn1[C@H](C)c1ccccc1
>10.2 mg/kg

Value lookup for Minimal lethal dose; key = COC(=O)C1(OC(=O)c2cncn2[C@H](C)c2ccccc2)CC1 [CPMM, cyclopropyl methoxycarbonyl metamidate, reference compound]
20.6 mg/kg

Value lookup for Minimal lethal dose; key = COC(OC)(OC(C)C)C(=O)c1ccnn1[C@H](C)c1ccccc1
>10.1 mg/kg

Value lookup for Minimal lethal dose; key = CCOC(OCC)C(=O)c1cncn1[C@H](C)c1ccccc1
>2.6 mg/kg

Value lookup for Minimal lethal dose; key = COC(OC)(OC)C(=O)c1c(F)ncn1[C@H](C)c1ccccc1
>1.8 mg/kg

Value lookup for Minimal lethal dose; key = CCOC(=O)c1cncn1C(C)c1ccccc1 (stereo not drawn) [Etomidate, reference compound]
13.8 mg/kg

* * *

system: Sprague-Dawley rats; test: animal or person; conditions: rats
Readout name: Approximate therapeutic index

Value lookup for Approximate therapeutic index; key = C[C@H](c1ccccc1)n1nncc1C(=O)OC(C)(C)C [Compound B12]
>16

Value lookup for Approximate therapeutic index; key = COC(=O)C1(OC(=O)c2cncn2[C@H](C)c2ccccc2)CC1 [CPMM, cyclopropyl methoxycarbonyl metamidate, reference compound]
>10

Value lookup for Approximate therapeutic index; key = C=C=CC1(OC(=O)c2cnnn2[C@H](C)c2ccccc2)CCCCC1 [Compound B11]
>8

Value lookup for Approximate therapeutic index; key = CCOC(=O)c1c(Br)nnn1[C@H](C)c1ccccc1 [Compound B99]
>16

Value lookup for Approximate therapeutic index; key = CC(C)OC(=O)c1c(Br)nnn1[C@H](C)c1ccccc1 [Compound B115]
>25

Value lookup for Approximate therapeutic index; key = C=C=CC1(OC(=O)c2c(F)nnn2[C@H](C)c2ccccc2)COC1 [Compound B35]
>29

* * *

Task for the reader: assign each of the following compounds its reported Approximate therapeutic index.
Tested on: Sprague-Dawley rats
Assay: animal or person
Details: rats
Experimental: Adult male Sprague-Dawley rats (250-300 g) were selected for the experiment. […] The anesthesia effects of the compounds were assessed in rats using a LORR assay and a period >30 s was considered as an indicator of general anesthesia.

Value lookup for Approximate therapeutic index; key = C=C=CC1(OC(=O)c2c(F)cnn2[C@H](C)c2ccccc2)COC1 [Compound A73]
>25

Value lookup for Approximate therapeutic index; key = CC(=O)C1(OC(=O)c2ccnn2[C@H](C)c2ccccc2)COC1 [Compound A8]
>7

Value lookup for Approximate therapeutic index; key = C=C=CC(C)(C)OC(=O)c1ccnn1[C@H](C)c1ccccc1 [Compound A14]
>8

Value lookup for Approximate therapeutic index; key = C=CC#CC(C)OC(=O)c1ccnn1[C@H](C)c1ccccc1 (some centres unmarked) [Compound A15]
>4

Value lookup for Approximate therapeutic index; key = CC#CC(C)OC(=O)c1ccnn1[C@H](C)c1ccccc1 (some centres unmarked) [Compound A11]
>4

Value lookup for Approximate therapeutic index; key = COC(=O)C1(OC(=O)c2cncn2[C@H](C)c2ccccc2)CC1 [CPMM, cyclopropyl methoxycarbonyl metamidate, reference compound]
>10

Value lookup for Approximate therapeutic index; key = C[C@H](c1ccccc1)n1nccc1C(=O)OC1(C)COC1 [Compound A30]
>6

Value lookup for Approximate therapeutic index; key = C[C@H](c1ccccc1)n1nccc1C(=O)OC1CSC1 [Compound A6]
>5

* * *

system: Sprague-Dawley rats; experiment: animal or person; format: in vivo; details: rats
Readout name: Approximate therapeutic index

Value lookup for Approximate therapeutic index; key = CCC(CC)OCC(=O)c1cncn1[C@H](C)c1ccccc1
>3.0

Value lookup for Approximate therapeutic index; key = C[C@H](c1ccccc1)n1cncc1C(=O)COC1CCC1
>2.4

Value lookup for Approximate therapeutic index; key = COCC(=O)c1cncn1[C@H](C)c1ccccc1
>2.8

* * *

Task for the reader: assign each of the following compounds its reported Approximate therapeutic index.
test system: Sprague-Dawley rats; test: animal or person; type: in vivo; settings: rats

Value lookup for Approximate therapeutic index; key = COC(OC)(OCC(C)(C)C)C(=O)c1ccnn1[C@H](C)c1ccccc1
>7.3

Value lookup for Approximate therapeutic index; key = CCSC(OC)(OC)C(=O)c1ccnn1[C@H](C)c1ccccc1 [Compound D2]
>6.6

Value lookup for Approximate therapeutic index; key = COC(OC)(OC)C(=O)c1cc(F)nn1[C@H](C)c1ccccc1
>4.5

Value lookup for Approximate therapeutic index; key = CC(C)c1cccc(C(C)C)c1O [Propofol, propofol, reference compound]
4.0

Value lookup for Approximate therapeutic index; key = CC(C)CCOC(=O)C(=O)c1cncn1[C@H](C)c1ccccc1
>6.3

Value lookup for Approximate therapeutic index; key = CCOC(OC)(OC)C(=O)c1cncn1[C@H](C)c1ccccc1
>6.2

Value lookup for Approximate therapeutic index; key = COC(OC)C(=O)c1cncn1[C@H](C)c1ccccc1
>6.8

* * *

test system: Sprague-Dawley rats; test: Pharmacological effect and adverse reactions under the equivalent dose (2ED50), Group C compounds; format: in vivo; settings: equivalent dose (2ED50), number of rats of n = 8
Task for the reader: assign each of the following compounds its reported Adverse reaction: the four limbs rigidity.
Keep it simple and answer with nothing but the number.

Value lookup for Adverse reaction: the four limbs rigidity; key = CCOCC(=O)c1cncn1[C@H](C)c1ccccc1 [Compound C34]
0

Value lookup for Adverse reaction: the four limbs rigidity; key = CC#CCC(=O)c1cncn1[C@H](C)c1ccccc1 [Compound C57]
0

Value lookup for Adverse reaction: the four limbs rigidity; key = CCOC(=O)c1cncn1C(C)c1ccccc1 (stereo not drawn) [Etomidate, reference compound]
0

Value lookup for Adverse reaction: the four limbs rigidity; key = CC(=O)COCC(=O)c1cc(F)nn1[C@H](C)c1ccccc1 [Compound C16]
4

Value lookup for Adverse reaction: the four limbs rigidity; key = CCC(CC)OCC(=O)c1cncn1[C@H](C)c1ccccc1 [Compound C36]
3

Value lookup for Adverse reaction: the four limbs rigidity; key = CC#CCOCC(=O)c1cc(F)nn1[C@H](C)c1ccccc1 [Compound C14]
0

Value lookup for Adverse reaction: the four limbs rigidity; key = C[C@H](c1ccccc1)n1cnc(F)c1C(=O)COCC1CC1 [Compound C76]
1

Value lookup for Adverse reaction: the four limbs rigidity; key = COC(=O)C1(OC(=O)c2cncn2[C@H](C)c2ccccc2)CC1 [CPMM, cyclopropyl methoxycarbonyl metamidate, reference compound]
4

Value lookup for Adverse reaction: the four limbs rigidity; key = C[C@H](c1ccccc1)n1cncc1C(=O)COC(C)(C)C [Compound C45]
1

Value lookup for Adverse reaction: the four limbs rigidity; key = CCOCC(=O)c1c(F)ncn1[C@H](C)c1ccccc1 [Compound C72]
0

Value lookup for Adverse reaction: the four limbs rigidity; key = C#CCOCC(=O)c1cncn1[C@H](C)c1ccccc1 [Compound C35]
0

Value lookup for Adverse reaction: the four limbs rigidity; key = C#CCOCC(=O)c1c(F)ncn1[C@H](C)c1ccccc1 [Compound C73]
1

* * *

test system: H295R cell line; test: Adrenocortical function in vitro test: secretion of cortisol and corticosterone, Group A compounds; format: cell-based; conditions: Homo sapiens; H295 cells, 0.1-10000 nM, HPLC-MS/MS; read-out: EC50 (Corticosterone)
Readout name: EC50

Value lookup for EC50; key = CC(=O)C1=C(OC(=O)c2c(F)cnn2[C@H](C)c2ccccc2)CCC1
> 1000 nM

Value lookup for EC50; key = CO[C@H]1C[C@@H](OC(=O)c2ccnn2[C@H](C)c2ccccc2)C1
> 1000 nM

Value lookup for EC50; key = CCOC(=O)c1cncn1C(C)c1ccccc1 (stereo not shown) [Etomidate, reference compound]
> 10 nM

Value lookup for EC50; key = C=C=CC1(OC(=O)c2cc(F)nn2[C@H](C)c2ccccc2)COC1
> 1000 nM

Cited source: patent US12570612B2
